src = patent US6638953B2

readout.kind: melting point

{"smiles": "COc1cc2c(cc1C(F)(F)F)N(C(=O)Nc1cncc(-c3ccc(Cl)cc3)c1)CC2", "melting point": "198 to 199 °C"}

// query Return reported melting point; argument: `COc1cc2c(cc1C(F)(F)F)N(C(=O)Nc1cccc(OCc3cccnc3)c1)CC2`
// result 202 to 204 °C

// query Same question for `COc1cc2c(cc1C(F)(F)F)N(C(=O)Nc1cccc(-c3ccc[nH]3)c1)CC2` please.
// result > 240 °C

---

readout.kind: melting point

{"compound": "COc1cc2c(cc1C(F)(F)F)N(C(=O)Nc1ccc(-c3ccccc3)nc1)CC2 [Example 94]", "result.value": "204 to 207 °C"}
{"compound": "COc1cc2c(cc1C(F)(F)F)N(C(=O)Nc1ccc(Oc3ccccc3C)nc1)CC2 [Example 157]", "result.value": "226 to 228 °C"}
{"compound": "COc1cc2c(cc1C(F)(F)F)N(C(=O)Nc1cncc(-c3ccccc3C=O)c1)CC2 [Example 91]", "result.value": "114 to 116 °C"}

// query Return reported melting point; argument: COc1cc2c(cc1C(F)(F)F)N(C(=O)Nc1cncc(-c3ccc(C)cc3)c1)CC2 [Example 14]
// result 190 to 191 °C

// query Same question for COc1cc2c(cc1C(F)(F)F)N(C(=O)Nc1cccc(COc3cccnc3)c1)CC2 [Example 139] please.
// result 188 to 190 °C

// query Same question for COc1cc2c(cc1C(F)(F)F)N(C(=O)Nc1cccc(-c3cccnc3)c1OC)CC2 [Example 84] please.
// result 196 to 197 °C

// query Same question for CSc1cc2c(cc1C(F)(F)F)N(C(=O)Nc1cccc(C(=O)NCCc3ccccn3)c1)CC2 [Example 153] please.
// result 92 to 94 °C

// query Same question for Cc1cc2c(cc1C(F)(F)F)N(C(=O)Nc1cccc(-c3cccnc3)c1)CC2 [Example 103] please.
// result 208 to 210 °C

// query Same question for CSc1cc2c(cc1C(F)(F)F)N(C(=O)Nc1cnc(-c3cccnc3)c(Cl)c1)CC2 [Example 141] please.
// result 245 to 250 °C

// query Same question for Cc1ncccc1Oc1ccc(NC(=O)N2CCc3cc(Cl)c(Cl)cc32)cn1 [Example 168] please.
// result 225 to 228 °C

// query Same question for COc1cc2c(cc1C(F)(F)F)N(C(=O)Nc1ccc(OC(F)(F)F)c(-c3cccnc3)c1)CC2 [Example 123] please.
// result 99 to 100 °C

---

Listing of recorded melting point by entry.

{"smiles": "COc1cc2c(cc1C(F)(F)F)N(C(=O)Nc1ccc(Oc3ccc(F)cc3C)nc1)CC2", "readout.kind": "melting point", "result.value": "208 to 209 °C"}
{"smiles": "Cc1cc2c(cc1Cl)N(C(=O)Nc1cc(F)cc(-c3cncnc3)c1)CC2", "readout.kind": "melting point", "result.value": "222 to 226 °C"}
{"smiles": "COc1cc2c(cc1C(F)(F)F)N(C(=O)Nc1ccc3c(ccn3Cc3ccncc3)c1)CC2", "readout.kind": "melting point", "result.value": "215 to 218 °C"}

# context switch: different compound, same melting point
// query Return reported melting point; argument: `COc1cc2c(cc1C(F)(F)F)N(C(=O)Nc1ccc(Oc3ccc(C)cc3C)nc1)CC2`
// result 236 to 238 °C
